These measurements were taken from patent US10093630B2.

# measured.target: FAAH (Mus musculus)
# Construct: Proteomes (mouse brain membrane fraction or cell lysates); from tissue; host or cells: mouse brain membrane fraction (or cell lysates, not specified)
# Sequence (O08914 whole entry): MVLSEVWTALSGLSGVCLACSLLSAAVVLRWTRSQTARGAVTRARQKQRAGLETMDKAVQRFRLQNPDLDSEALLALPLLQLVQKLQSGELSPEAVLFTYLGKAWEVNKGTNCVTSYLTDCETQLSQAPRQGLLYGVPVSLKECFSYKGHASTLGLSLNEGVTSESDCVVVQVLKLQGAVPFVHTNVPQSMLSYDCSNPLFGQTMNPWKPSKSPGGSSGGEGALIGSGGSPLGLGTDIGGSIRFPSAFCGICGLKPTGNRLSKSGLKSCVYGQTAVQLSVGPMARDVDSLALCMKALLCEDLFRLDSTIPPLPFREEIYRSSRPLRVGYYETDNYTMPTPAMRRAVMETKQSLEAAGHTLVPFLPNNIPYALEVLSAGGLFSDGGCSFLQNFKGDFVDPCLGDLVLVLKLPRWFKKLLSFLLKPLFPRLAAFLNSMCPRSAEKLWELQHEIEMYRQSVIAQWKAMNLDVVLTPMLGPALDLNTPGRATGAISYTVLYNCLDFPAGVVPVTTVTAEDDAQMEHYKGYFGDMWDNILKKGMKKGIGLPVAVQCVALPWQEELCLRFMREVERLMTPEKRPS
# method.description: In vitro competitive activity-based protein profiling (gel-based, FP-Rh or HT-01 probe)
# Type: biochemical
# test.conditions: mouse brain membrane fraction or cell lysates, 30 min preincubation at 37° C.; read-out: Mouse (IC50 value, nM) FAAH
parameter.measured: IC50

In: Specify measured IC50 for `Cc1cc(-c2ccccc2)ccc1CN1CCN(C(=O)n2cc(C(=O)N3CCOCC3)cn2)CC1` .
Out: < 100 nM

In: Quick one: give measured IC50 for `O=C(N1CCN(Cc2ccc(-c3ccccc3)cc2Cl)CC1)n1cc(C(F)(F)F)cn1`
Out: < 100 nM

In: # return recorded IC50 for entry `O=C(N1CCN(Cc2ccc(C(F)(F)F)cc2N2CCCC2)CC1)n1cc(F)cn1`
Out: 100 to 1000 nM

In: Give me measured IC50, please, for this compound: `CCN(Cc1ccc(OC)cc1)C(=O)n1cc(Cl)cn1`
Out: 100 to 1000 nM

In: Tell me IC50 reported for `Cc1cc(N2CCOCC2)ccc1CN1CCN(C(=O)n2cc(Cl)cn2)CC1`
Out: 100 to 1000 nM

In: Read off the recorded IC50 for `O=C(c1cnn(C(=O)N2CCN(C(c3ccc(Cl)cc3)c3ccc(Cl)cc3)CC2)c1)N1CCC1`
Out: > 1000 nM

In: Please indicate IC50 recorded for `O=C(N1CCN(Cc2cccc(F)c2)CC1)n1cc(C(F)(F)F)cn1`
Out: < 100 nM

In: Annotate the compound `Cc1cnn(C(=O)N2CCN(C(c3ccc(Cl)cc3)c3ccc(Cl)cc3)CC2)c1` with its measured IC50.
Out: > 1000 nM

In: Using the record for `CCN(Cc1cccc(OC)c1)C(=O)n1cc(C#N)cn1` , state its measured IC50.
Out: < 100 nM

###

Recorded inhibition at 1 µM for the following compounds
# measured.target: PLA2G7 (Mus musculus, UniProt Q60963)
# Construct: Proteomes (mouse brain membrane fraction or cell lysates); from tissue; host or cells: mouse brain membrane fraction (or cell lysates, not specified)
# method.description: In vitro competitive activity-based protein profiling (gel-based, FP-Rh or HT-01 probe)
# Format: biochemical
# test.conditions: 1 μM inhibitor; gel-based competitive ABPP; read-out: % Inhibition at 1 μM, D = PLA2G7

In: Provide the reported inhibition at 1 µM (system: PLA2G7 (Mus musculus, UniProt Q60963)) for `NC(=O)c1cnn(C(=O)N2CCN(Cc3cccc(Oc4ccccc4)c3)CC2)c1`
Out: 25 to 75%

In: Enter recorded inhibition at 1 µM with PLA2G7 (Mus musculus, UniProt Q60963) for `CCN(Cc1ccc(C)cc1)C(=O)n1cc(C)cn1` here.
Out: < 25%

In: Report value: inhibition at 1 µM, system: PLA2G7 (Mus musculus, UniProt Q60963), compound: `CCN(Cc1cccc(N2CCOCC2)c1)C(=O)n1cc(C)cn1`
Out: < 25%

###

# measured.target: PLA2G7 (Mus musculus)
# Construct: Proteomes (mouse brain membrane fraction or cell lysates); from tissue; host or cells: mouse brain membrane fraction (or cell lysates, not specified)
# Sequence (Q60963 22-440): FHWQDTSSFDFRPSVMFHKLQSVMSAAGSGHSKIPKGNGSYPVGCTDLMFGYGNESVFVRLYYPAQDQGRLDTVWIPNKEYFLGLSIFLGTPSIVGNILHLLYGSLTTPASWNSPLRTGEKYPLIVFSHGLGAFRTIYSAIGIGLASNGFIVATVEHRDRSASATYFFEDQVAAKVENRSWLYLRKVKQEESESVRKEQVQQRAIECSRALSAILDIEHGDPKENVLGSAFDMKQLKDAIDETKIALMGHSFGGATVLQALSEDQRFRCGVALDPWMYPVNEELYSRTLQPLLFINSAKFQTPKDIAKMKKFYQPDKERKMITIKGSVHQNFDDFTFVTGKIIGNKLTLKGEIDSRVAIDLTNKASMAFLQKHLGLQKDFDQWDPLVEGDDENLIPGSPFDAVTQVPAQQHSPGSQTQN
# method.description: In vitro competitive activity-based protein profiling (gel-based, FP-Rh or HT-01 probe)
# Assay type: biochemical
# test.conditions: 10 μM inhibitor; gel-based competitive ABPP; read-out: % Inhibition at 10 μM, D = PLA2G7
Each entry below lists one item and its recorded inhibition at 10 µM value.

Below: 4 compounds and their reported inhibition at 10 µM.
mol.smiles | parameter.measured | result.value
O=C(O)c1cnn(C(=O)N2CCN(Cc3ccc(Cl)cc3)CC2)c1 | inhibition at 10 µM | < 25%
N#Cc1cnn(C(=O)N2CCN(Cc3ccc(C(=O)N4CCCCC4)cc3Cl)CC2)c1 | inhibition at 10 µM | > 75%
CCN(Cc1cccc(OC)c1)C(=O)n1cc(C(F)(F)F)cn1 | inhibition at 10 µM | > 75%
N#Cc1cnn(C(=O)N2CCN(Cc3ccc(C(=O)N4CCC4)cc3F)CC2)c1 | inhibition at 10 µM | > 75%

// moving on: another record for inhibition at 10 µM
In: Assign inhibition at 10 µM to the following record: `N#Cc1cnn(C(=O)N2CCN(Cc3ccc(C(=O)N4CCCCC4)cc3F)CC2)c1`
Out: > 75%
